- Test system: Sonic hedgehog protein (Shh)
- testProtocol: Sonic hedgehog microarray binding compounds – biochemical, small-molecule microarray, 635/667 nm fluorescence, primary screen (AID 1151);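 note: Shh protein binding to compounds spotted on small-molecule microarray slides; score combines spot fluorescence intensity with signal-to-noise across triplicate slides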
- conditionNotes: 635 nm fluorescence, higher = more signal
Each record here notes measured composite z-score.
Give your answer as a number; write no unit.

Use these answered entries as a reference point.
COCCOC(=O)N1C(=O)[C@@]2(c3cc(C#CC4(O)CCCCCC4)ccc31)[C@H](c1ccccc1OCCO)N1[C@H](c3ccccc3)[C@H](c3ccccc3)OC(=O)[C@H]1[C@@H]2C(=O)N1CCc2cc(OC)c(OC)cc2C1 :: 1.11
CCCCN1CC=CC23O[C@@H]4/C=C\CCCOC(=O)C4[C@H]2C(=O)N(CCCCCO)[C@@H]3C1=O (stereo partly drawn) :: -0.695
O=C1NC(=O)C2C1C=CC(C(O)c1ccc(I)cc1)N2Nc1ccccn1 (stereo not drawn) :: -0.0484
CC(C)(C)OC(=O)CC[C@@]1(C(=O)N2CCCCC2)N=C(c2ccc(OCCCO)cc2)O[C@@H]1c1ccccc1 :: -0.45
COc1cc(CO)cc(I)c1O[C@H]1C=C(C(=O)NCCO)C[C@@H](NC[C@@H]2CCCO2)[C@@H]1O :: 1.07
COC(=O)[C@H](Cc1ccccc1)N[C@H](/C=C/C1CC1)[C@@H](O)Cc1ccccc1 :: -0.345

composite z-score reading for O=C1C2C=CC(C(O)COCc3ccccc3)N(Nc3ccc([N+](=O)[O-])cc3)C2C(=O)N1c1ccccc1 (stereo not drawn) : 0.57

composite z-score reading for `COc1ccc(C(=O)Nc2cccc(CN3C(=O)[C@]4(O[C@H](CCn5cc(CCO)nn5)[C@@H]([Si](C)(C)c5ccc(OC)cc5)[C@@H]4C)c4ccccc43)c2)cc1` : 1.21

composite z-score reading for CCOC(=O)C1=CCC(c2ccc(F)cc2)N(S(=O)(=O)c2ccc(C)cc2)C1 (stereo not drawn) : -0.282

composite z-score reading for CCN(CC)c1ccc(N2CC=CC34O[C@@H]5C=CCOC(=O)[C@@H]5[C@H]3C(=O)N(CCCCCCO)[C@@H]4C2=O)cc1 (stereo partly drawn) : -0.326

composite z-score reading for `COc1ccc([Si](C)(C)[C@H]2[C@H](CC(=O)N3CCC[C@H]3CO)O[C@@]3(C(=O)N(Cc4cccc(N5CCOC5=O)c4)c4ccccc43)[C@@H]2C)cc1` : 1.99

composite z-score reading for C=CCC(OC(C)=O)[C@@H]1[C@@H](N(Cc2ccc(-c3cccc(C(F)(F)F)c3)o2)C(=O)Cc2ccc(OC)cc2)c2cc(OCCCO)ccc2N1C(=O)c1ccc2ccccc2c1 (stereo partly drawn) : 0.804

composite z-score reading for `CCCCC(=C=CC[C@H](O)c1cccc(OCCO)c1)C[C@H](O)c1ccccn1` : 0.577

composite z-score reading for `COCCOC(=O)N1C(=O)[C@@]2(c3ccccc31)[C@H](c1ccc(OCCO)cc1)N1[C@H](c3ccccc3)[C@H](c3ccccc3)OC(=O)[C@H]1[C@@H]2C(=O)N1CCc2cc(OC)c(OC)cc2C1` : 1.84

composite z-score reading for `CC(C)OC(=O)C=C1C[C@@H](c2cccc(Cl)c2)O[C@@H](c2cccc(Cl)c2)O1` : -1.16

composite z-score reading for `O=C(CS)NCCCCCNC(=O)[C@H]1C[C@H]2C(=O)NCC(=O)N2[C@H]1c1ccc(O)cc1` : 0.0174

composite z-score reading for CN1C(=O)C2C=CC(C(O)C=Cc3ccc([N+](=O)[O-])cc3)N(Nc3ccccc3)C2C1=O (stereo not drawn) : 0.428

composite z-score reading for `CO[C@H]1O[C@H](CO)[C@@H](OC(=O)Nc2cccc(F)c2)[C@H](OC(=O)Nc2ccccc2)[C@H]1OC(=O)Nc1ccccc1` : 1.61
